The reported measurements were obtained from ChEMBL document CHEMBL1153377.

# system name: Adenosine receptor A2a (Homo sapiens)
# Sequence (P29274 whole entry): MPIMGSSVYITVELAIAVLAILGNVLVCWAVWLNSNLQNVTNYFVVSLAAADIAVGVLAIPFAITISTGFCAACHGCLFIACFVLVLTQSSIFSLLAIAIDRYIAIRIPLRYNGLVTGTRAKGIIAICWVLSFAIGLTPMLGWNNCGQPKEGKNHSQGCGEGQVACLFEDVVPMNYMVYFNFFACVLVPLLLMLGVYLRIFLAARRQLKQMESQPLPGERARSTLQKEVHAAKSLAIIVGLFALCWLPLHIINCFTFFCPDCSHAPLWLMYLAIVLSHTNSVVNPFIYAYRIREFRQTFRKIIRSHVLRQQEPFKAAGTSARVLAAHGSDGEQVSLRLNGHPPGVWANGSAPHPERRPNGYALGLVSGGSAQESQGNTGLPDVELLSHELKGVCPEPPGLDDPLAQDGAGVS
attribute measured: Ki (µM)

[[record]]
input_smiles = "Cn1c(Br)nc2c(N)ncnc21"
system_name = "Adenosine receptor A2a (Homo sapiens)"
recorded_value = 0.12

[[record]]
input_smiles = "Nc1ncnc2c1ncn2C1CC1"
system_name = "Adenosine receptor A2a (Homo sapiens)"
recorded_value = 2.3

[[record]]
input_smiles = "C=CCCn1cnc2c(N)ncnc21"
system_name = "Adenosine receptor A2a (Homo sapiens)"
recorded_value = 8.5


* * *

In what follows, each item is paired with its log10 of Ki for Adenosine receptor A2a (Homo sapiens, UniProt P29274).
attribute measured: log10 of Ki (log10 of the value in µM)

[[record]]
molecule = "CC(C)Cn1c(Br)nc2c(N)ncnc21"
system_name = "Adenosine receptor A2a (Homo sapiens, UniProt P29274)"
attribute_measured = "log10 of Ki"
recorded_value = 0.78

[[record]]
molecule = "Nc1ncnc2c1ncn2C[C@H](O)CO [(S)-DHPA]"
system_name = "Adenosine receptor A2a (Homo sapiens, UniProt P29274)"
attribute_measured = "log10 of Ki"
recorded_value = 0.93

[[record]]
molecule = "C=CCn1c(Br)nc2c(N)ncnc21"
system_name = "Adenosine receptor A2a (Homo sapiens, UniProt P29274)"
attribute_measured = "log10 of Ki"
recorded_value = -0.14

[[record]]
molecule = "CCCn1cnc2ncnc(N)c21"
system_name = "Adenosine receptor A2a (Homo sapiens, UniProt P29274)"
attribute_measured = "log10 of Ki"
recorded_value = 1.26

[[record]]
molecule = "Nc1ncnc2c1nc(Br)n2C1CCCC1"
system_name = "Adenosine receptor A2a (Homo sapiens, UniProt P29274)"
attribute_measured = "log10 of Ki"
recorded_value = 0.28

[[record]]
molecule = "CCn1c(Br)nc2c(N)ncnc21"
system_name = "Adenosine receptor A2a (Homo sapiens, UniProt P29274)"
attribute_measured = "log10 of Ki"
recorded_value = -1.28

[[record]]
molecule = "CCCn1c(Br)nc2c(N)ncnc21"
system_name = "Adenosine receptor A2a (Homo sapiens, UniProt P29274)"
attribute_measured = "log10 of Ki"
recorded_value = -0.52

[[record]]
molecule = "Nc1ncnc2c1nc(Br)n2Cc1ccccc1"
system_name = "Adenosine receptor A2a (Homo sapiens, UniProt P29274)"
attribute_measured = "log10 of Ki"
recorded_value = 0.79

[[record]]
molecule = "Nc1ncnc2c1nc(Br)n2CC(O)CO (stereo not given)"
system_name = "Adenosine receptor A2a (Homo sapiens, UniProt P29274)"
attribute_measured = "log10 of Ki"
recorded_value = 0.60

[[record]]
molecule = "Nc1ncnc2c1nc(Br)n2CCCO"
system_name = "Adenosine receptor A2a (Homo sapiens, UniProt P29274)"
attribute_measured = "log10 of Ki"
recorded_value = -1.07

[[record]]
molecule = "Nc1ncnc2c1nc(Br)n2C1CCCCC1"
system_name = "Adenosine receptor A2a (Homo sapiens, UniProt P29274)"
attribute_measured = "log10 of Ki"
recorded_value = 1.18

[[record]]
molecule = "Nc1ncnc2c1nc(Br)n2CCc1ccccc1"
system_name = "Adenosine receptor A2a (Homo sapiens, UniProt P29274)"
attribute_measured = "log10 of Ki"
recorded_value = 0.69

[[record]]
molecule = "CC(C)n1cnc2ncnc(N)c21"
system_name = "Adenosine receptor A2a (Homo sapiens, UniProt P29274)"
attribute_measured = "log10 of Ki"
recorded_value = 1.08

[[record]]
molecule = "CC(C)n1c(Br)nc2c(N)ncnc21"
system_name = "Adenosine receptor A2a (Homo sapiens, UniProt P29274)"
attribute_measured = "log10 of Ki"
recorded_value = -1.13

[[record]]
molecule = "Nc1ncnc2c1ncn2CCCO"
system_name = "Adenosine receptor A2a (Homo sapiens, UniProt P29274)"
attribute_measured = "log10 of Ki"
recorded_value = 0.59


* * *

Protein target, amino acids: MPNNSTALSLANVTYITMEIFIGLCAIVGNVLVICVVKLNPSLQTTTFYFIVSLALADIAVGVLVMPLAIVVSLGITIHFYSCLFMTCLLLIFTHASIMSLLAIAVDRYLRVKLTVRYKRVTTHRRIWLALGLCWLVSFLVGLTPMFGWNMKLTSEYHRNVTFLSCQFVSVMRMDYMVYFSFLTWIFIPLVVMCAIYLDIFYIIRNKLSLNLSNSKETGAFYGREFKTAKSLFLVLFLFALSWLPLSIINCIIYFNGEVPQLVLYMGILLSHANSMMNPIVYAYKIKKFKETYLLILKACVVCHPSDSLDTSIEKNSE
pKi: −log10 of the molar value.
pKi: recorded values
attribute measured: pKi

[[record]]
compound = "CC(C)n1cnc2c(N)ncnc21"
attribute_measured = "pKi"
recorded_value = "< 4.00"

[[record]]
compound = "CC(O)Cn1cnc2ncnc(N)c21 (stereo unspecified)"
attribute_measured = "pKi"
recorded_value = "< 4.00"

[[record]]
compound = "CCCn1cnc2c(N)ncnc21"
attribute_measured = "pKi"
recorded_value = "≤ 4.00"

[[record]]
compound = "CCC(C)n1c(Br)nc2c(N)ncnc21 (stereo unspecified)"
attribute_measured = "pKi"
recorded_value = 4.82

[[record]]
compound = "CC(O)Cn1c(Br)nc2c(N)ncnc21 (stereo unspecified)"
attribute_measured = "pKi"
recorded_value = "≤ 4.00"

[[record]]
compound = "Cn1c(Br)nc2c(N)ncnc21"
attribute_measured = "pKi"
recorded_value = "< 4.00"

[[record]]
compound = "CCC(C)n1cnc2c(N)ncnc21 (stereo unspecified)"
attribute_measured = "pKi"
recorded_value = "< 4.00"

[[record]]
compound = "Nc1ncnc2ncn(CCO)c12"
attribute_measured = "pKi"
recorded_value = "< 4.00"

[[record]]
compound = "CCCCn1c(Br)nc2c(N)ncnc21"
attribute_measured = "pKi"
recorded_value = "< 4.00"

[[record]]
compound = "Nc1ncnc2c1ncn2C1CCCC1"
attribute_measured = "pKi"
recorded_value = 4.89

[[record]]
compound = "Nc1ncnc2c1ncn2C1CC1"
attribute_measured = "pKi"
recorded_value = "< 4.00"

[[record]]
compound = "CCCCn1cnc2c(N)ncnc21"
attribute_measured = "pKi"
recorded_value = "< 4.00"

[[record]]
compound = "Nc1ncnc2c1ncn2CCCO"
attribute_measured = "pKi"
recorded_value = "< 4.00"

[[record]]
compound = "CCn1cnc2c(N)ncnc21"
attribute_measured = "pKi"
recorded_value = "< 4.00"

[[record]]
compound = "Nc1ncnc2c1ncn2C[C@H](O)CO [(S)-DHPA]"
attribute_measured = "pKi"
recorded_value = "< 4.00"

[[record]]
compound = "Nc1ncnc2c1nc(Br)n2CCc1ccccc1"
attribute_measured = "pKi"
recorded_value = "< 4.52"


* * *

# system name: Adenosine receptor A2b (Homo sapiens)
# Sequence (P29275 whole entry): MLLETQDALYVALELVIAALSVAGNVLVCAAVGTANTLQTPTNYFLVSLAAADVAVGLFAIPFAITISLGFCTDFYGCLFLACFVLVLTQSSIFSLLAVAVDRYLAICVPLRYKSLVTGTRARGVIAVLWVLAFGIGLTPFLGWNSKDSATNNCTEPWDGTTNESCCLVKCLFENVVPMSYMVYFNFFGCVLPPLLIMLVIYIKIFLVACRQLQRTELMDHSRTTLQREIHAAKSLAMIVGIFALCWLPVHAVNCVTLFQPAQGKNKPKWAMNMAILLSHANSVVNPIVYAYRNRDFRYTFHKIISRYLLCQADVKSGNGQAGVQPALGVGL
# test method notes: Antagonist activity at human adenosine A2B receptor expressed in CHO cells assessed as inhibition of NECA-stimulated adenylyl cyclase activity
Below, each entry is listed with its recorded Ki.
attribute measured: Ki

[[record]]
compound = "CC(C)n1cnc2c(N)ncnc21"
attribute_measured = "Ki"
recorded_value = "16 µM"

[[record]]
compound = "Nc1ncnc2c1nc(Br)n2Cc1ccccc1"
attribute_measured = "Ki"
recorded_value = "> 30 µM"

[[record]]
compound = "Nc1ncnc2c1ncn2C1CC1"
attribute_measured = "Ki"
recorded_value = "> 30 µM"

[[record]]
compound = "Nc1ncnc2c1ncn2CCO"
attribute_measured = "Ki"
recorded_value = "> 30 µM"

[[record]]
compound = "Nc1ncnc2c1ncn2C[C@H](O)CO [(S)-DHPA]"
attribute_measured = "Ki"
recorded_value = "> 30 µM"

[[record]]
compound = "Cn1cnc2ncnc(N)c21"
attribute_measured = "Ki"
recorded_value = "> 30 µM"

[[record]]
compound = "Nc1ncnc2c1nc(Br)n2C1CCC1"
attribute_measured = "Ki"
recorded_value = "4.1 µM"

[[record]]
compound = "Cn1cnc2c(N)ncnc21"
attribute_measured = "Ki"
recorded_value = "> 30 µM"

[[record]]
compound = "CCC(C)n1cnc2ncnc(N)c21 (centres undefined)"
attribute_measured = "Ki"
recorded_value = "> 30 µM"

[[record]]
compound = "CCCn1cnc2ncnc(N)c21"
attribute_measured = "Ki"
recorded_value = "> 30 µM"

[[record]]
compound = "CCCCn1c(Br)nc2c(N)ncnc21"
attribute_measured = "Ki"
recorded_value = "5.6 µM"

[[record]]
compound = "C=CCCn1cnc2c(N)ncnc21"
attribute_measured = "Ki"
recorded_value = "> 30 µM"

[[record]]
compound = "Nc1ncnc2c1ncn2Cc1ccccc1 [9-BENZYL-9H-ADENINE]"
attribute_measured = "Ki"
recorded_value = "> 30 µM"

[[record]]
compound = "Nc1ncnc2c1ncn2C1CCC1"
attribute_measured = "Ki"
recorded_value = "17 µM"

[[record]]
compound = "Nc1ncnc2c1nc(Br)n2CCO"
attribute_measured = "Ki"
recorded_value = "2.8 µM"

[[record]]
compound = "Nc1ncnc2c1nc(Br)n2CCc1ccccc1"
attribute_measured = "Ki"
recorded_value = "> 30 µM"

[[record]]
compound = "CCC(C)n1cnc2c(N)ncnc21 (centres undefined)"
attribute_measured = "Ki"
recorded_value = "19 µM"

[[record]]
compound = "Nc1ncnc2c1nc(Br)n2C1CCCC1"
attribute_measured = "Ki"
recorded_value = "0.86 µM"

[[record]]
compound = "CCn1cnc2ncnc(N)c21"
attribute_measured = "Ki"
recorded_value = "> 30 µM"

[[record]]
compound = "Nc1ncnc2ncn(CC(O)CO)c12 (centres undefined)"
attribute_measured = "Ki"
recorded_value = "> 30 µM"

[[record]]
compound = "CC(O)Cn1c(Br)nc2c(N)ncnc21 (centres undefined)"
attribute_measured = "Ki"
recorded_value = "0.64 µM"

[[record]]
compound = "Nc1ncnc2c1nc(Br)n2C1CCCCC1"
attribute_measured = "Ki"
recorded_value = "> 30 µM"

[[record]]
compound = "CC(C)Cn1cnc2c(N)ncnc21"
attribute_measured = "Ki"
recorded_value = "> 30 µM"

[[record]]
compound = "Nc1ncnc2c1ncn2C1CCCCC1"
attribute_measured = "Ki"
recorded_value = "> 30 µM"

[[record]]
compound = "Nc1ncnc2ncn(CCO)c12"
attribute_measured = "Ki"
recorded_value = "> 30 µM"

[[record]]
compound = "Nc1ncnc2nc(Br)[nH]c12"
attribute_measured = "Ki"
recorded_value = "> 30 µM"

[[record]]
compound = "CCCCn1cnc2c(N)ncnc21"
attribute_measured = "Ki"
recorded_value = "> 30 µM"

[[record]]
compound = "Nc1ncnc2c1ncn2CCCO"
attribute_measured = "Ki"
recorded_value = "> 30 µM"

[[record]]
compound = "Nc1ncnc2ncn(CCCO)c12"
attribute_measured = "Ki"
recorded_value = "> 30 µM"

[[record]]
compound = "CCn1c(Br)nc2c(N)ncnc21"
attribute_measured = "Ki"
recorded_value = "0.84 µM"

[[record]]
compound = "Nc1ncnc2c1nc(Br)n2CC(O)CO (centres undefined)"
attribute_measured = "Ki"
recorded_value = "7.1 µM"

[[record]]
compound = "CC(O)Cn1cnc2ncnc(N)c21 (centres undefined)"
attribute_measured = "Ki"
recorded_value = "> 30 µM"

[[record]]
compound = "Nc1ncnc2c1ncn2C1CCCCCC1"
attribute_measured = "Ki"
recorded_value = "> 30 µM"

[[record]]
compound = "Nc1ncnc2c1ncn2C1CCCC1"
attribute_measured = "Ki"
recorded_value = "> 30 µM"

[[record]]
compound = "CC(C)Cn1cnc2ncnc(N)c21"
attribute_measured = "Ki"
recorded_value = "> 30 µM"

[[record]]
compound = "Nc1ncnc2c1nc(Br)n2CCCO"
attribute_measured = "Ki"
recorded_value = "5.1 µM"

[[record]]
compound = "CC(C)n1c(Br)nc2c(N)ncnc21"
attribute_measured = "Ki"
recorded_value = "1.1 µM"

[[record]]
compound = "CC(C)Cn1c(Br)nc2c(N)ncnc21"
attribute_measured = "Ki"
recorded_value = "4.2 µM"

[[record]]
compound = "CC(O)Cn1cnc2c(N)ncnc21 (centres undefined)"
attribute_measured = "Ki"
recorded_value = "> 30 µM"

[[record]]
compound = "Nc1ncnc2c1nc(Br)n2C1CCCCCC1"
attribute_measured = "Ki"
recorded_value = "> 30 µM"

[[record]]
compound = "CC(C)n1cnc2ncnc(N)c21"
attribute_measured = "Ki"
recorded_value = "> 30 µM"

[[record]]
compound = "Nc1ncnc2c1ncn2CCc1ccccc1"
attribute_measured = "Ki"
recorded_value = "> 30 µM"

[[record]]
compound = "CCC(C)n1c(Br)nc2c(N)ncnc21 (centres undefined)"
attribute_measured = "Ki"
recorded_value = "1.2 µM"

[[record]]
compound = "C=CCCn1c(Br)nc2c(N)ncnc21"
attribute_measured = "Ki"
recorded_value = "> 30 µM"

[[record]]
compound = "Cn1c(Br)nc2c(N)ncnc21"
attribute_measured = "Ki"
recorded_value = "0.72 µM"

[[record]]
compound = "C=CCn1c(Br)nc2c(N)ncnc21"
attribute_measured = "Ki"
recorded_value = "4.6 µM"

[[record]]
compound = "CCn1cnc2c(N)ncnc21"
attribute_measured = "Ki"
recorded_value = "> 30 µM"

[[record]]
compound = "CCCn1c(Br)nc2c(N)ncnc21"
attribute_measured = "Ki"
recorded_value = "0.2 µM"

[[record]]
compound = "CCCn1cnc2c(N)ncnc21"
attribute_measured = "Ki"
recorded_value = "1.7 µM"

